- target_or_system: human calcitonin receptor (CTR) and RAMP3 (AMY3) (Homo sapiens, UniProt O60896+P30988)
- Sequence (O60896 24-148): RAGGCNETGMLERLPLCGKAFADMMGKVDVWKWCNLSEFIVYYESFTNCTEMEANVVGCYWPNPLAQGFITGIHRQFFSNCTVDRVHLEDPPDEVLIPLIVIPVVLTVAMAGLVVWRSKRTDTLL
- Sequence (P30988 25-474): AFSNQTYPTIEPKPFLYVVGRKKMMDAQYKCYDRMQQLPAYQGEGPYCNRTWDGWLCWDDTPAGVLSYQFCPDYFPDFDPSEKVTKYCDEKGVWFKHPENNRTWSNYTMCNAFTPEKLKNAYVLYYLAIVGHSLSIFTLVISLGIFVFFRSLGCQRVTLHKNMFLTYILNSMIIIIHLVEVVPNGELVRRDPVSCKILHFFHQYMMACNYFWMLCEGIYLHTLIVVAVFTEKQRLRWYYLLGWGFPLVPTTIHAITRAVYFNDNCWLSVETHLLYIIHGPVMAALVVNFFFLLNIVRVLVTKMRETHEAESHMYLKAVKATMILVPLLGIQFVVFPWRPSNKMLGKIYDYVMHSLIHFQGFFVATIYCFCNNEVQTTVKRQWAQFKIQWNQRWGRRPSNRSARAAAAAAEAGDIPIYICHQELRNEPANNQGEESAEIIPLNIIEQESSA
- experimental_protocol: Amylin Receptor cAMP Assay II
- Assay type: cell-based
- condition_details: COS-7/AMY3 cells, cAMP dynamic 2 kit, read-out: Amylin Receptor cAMP Stimulation Activity: EC50
property_name: EC50 (nM)

Examples from the recorded data:
compound=Cc1cc(-c2c(CCC3CCOCC3)nc3c(c2-c2ccc4c(c2)oc(=O)n4Cc2ccc(C#N)cn2)S(=O)(=O)N2CCC[C@@H]32)ccn1 measured_value=78.8
compound=COc1cccc2c1CC[C@H]2Nc1nccc2cc(-c3c4c(nc(CCc5ccc(F)cc5)c3-c3nnc(N)o3)[C@@H]3CCCN3C4=O)sc12 measured_value=9.66
compound="Cc1nnc(-c2c(CCC3CCOC(C)(C)C3)nc3c(c2-c2cc4ncnc(N[C@@H]5CCc6ncccc65)c4s2)S(=O)(=O)CC3C(C)C)o1 (stereo partly drawn)" measured_value=462
compound=Cc1nnc(-c2c(C(C)C)nc3c(c2-c2ccc4c(c2)OC(C)(C)C(=O)N4Cc2ccc(F)cn2)C(=O)N2CC4CC32C4)o1 measured_value=596
compound=Cc1nnc(-c2c(CCC3CCOCC3)nc3c(c2-c2cc4ccnc(N[C@@H]5CCc6ncccc65)c4s2)C(=O)N2CCC[C@@H]32)o1 measured_value=306
compound=CC(C)c1nnc(-c2c(CCC34CCC(CC3)OC4)nc3c(c2-c2ccc4c(c2)oc(=O)n4Cc2ccc(C#N)c(F)c2)c(=O)n2n3CCC2)o1 measured_value=12.2
compound="Cc1nnc(-c2c(CCC3CCOCC3)nc3c(c2-c2cc4ccnc(N[C@H](C)c5cncc(F)c5)c4s2)S(=O)(=O)CC3C(C)C)o1 (stereo partly drawn)" measured_value=471
compound="Cc1nnc(-c2c(CCC3CCOCC3)nc3c(c2-c2cc4ccnc(Nc5ccc(F)c(F)c5)c4s2)S(=O)(=O)CC3C(C)C)o1 (stereo not drawn)" measured_value=1970

I = Cc1nnc(-c2c(CCC3C4COCC34)nc3c(c2-c2cc4ccnc(N[C@@H]5CCc6ncccc65)c4s2)S(=O)(=O)CC3C(C)C)o1 (stereo partly drawn)
II = Cc1cc(-c2c(CCC3CCOCC3)nc3c(c2-c2ccc4c(c2)oc(=O)n4Cc2ncc(Cl)cc2F)C(=O)N2CCC[C@@]32C)ccn1
Request: Which has the smaller recorded EC50, I or II ? Which one? Tell me its label.
Result: I

1 = Cc1nnc(-c2c(CCC3CCOCC3)nc3c(c2-c2cc4ccnc(N[C@@H]5CCc6ncccc65)c4s2)C(=O)N[C@H]3C(C)C)o1
2 = Cc1nnc(-c2c(CCC3CCOCC3)nc3c(c2-c2cnc4c(ccn4Cc4ccc(C#N)c(F)c4)c2)S(=O)(=O)N2CCC[C@@H]32)o1
Request: Lab notebook, comparison: 1 versus 2 , higher EC50 goes to which? Answer = label.
Result: 1
(1: 508 nM, 2: 128 nM)

---

- target_or_system: human calcitonin receptor (CTR) and RAMP3 (AMY3) (Homo sapiens, UniProt O60896+P30988)
- experimental_protocol: Amylin Receptor cAMP Assay II
- Format: cell-based
- condition_details: COS-7/AMY3 cells, cAMP dynamic 2 kit, read-out: Amylin Receptor cAMP Stimulation Activity: EC50
- Description: Amylin Receptor cAMPAssay II AMYRs are heterodimers of the class B calcitonin (CT) G-protein-coupled receptor (CTR) and receptor activity-modifying proteins (RAMPs). All three RAMPs can interact with the CTR and form AMY1, AMY2, AMY3 with RAMP1, RAMP2 and RAMP3, respectively. Like other class B1 GPCRs, the CT receptor family is canonically coupled to Gs-mediated cAMP production, and measurement of cAMP accumulation has been the primary assay used to determine peptide selectivity and potency. […]
pEC50: −log10 of the molar value.
property_name: pEC50

compound="Cc1nnc(-c2c(CCC3CCOCC3)nc3c(c2-c2cc4ccnc(N[C@@H]5CCc6ncccc65)c4s2)S(=O)(=O)CC3C(C)C)o1 (stereo partly drawn)" measured_value=6.73
compound="Cc1nnc(-c2c(CC3CCOCC3)nc3c(c2-c2cc4ccnc(N[C@@H]5CCc6ncccc65)c4s2)S(=O)(=O)CC3C(C)C)o1 (stereo partly drawn)" measured_value=5.89
compound=Cc1cnc(-c2c(CCC3CCOCC3)nc3c(c2-c2ccc4c(c2)oc(=O)n4Cc2ccc(C#N)c(F)c2)c(=O)n2n3CCC2)o1 measured_value=7.40

A = Cc1nnc(-c2c(CCC3CCOCC3)nc3c(c2-c2ccc4c(c2)oc(=O)n4Cc2ccc(C#N)cn2)S(=O)(=O)CC3C(C)C)o1 (stereo not drawn)
B = Cc1nnc(-c2c(CCC3CCOCC3)nc3c(c2-c2ccc4c(c2)oc(=O)n4Cc2ccc(C#N)c(F)c2)C(=O)N2CCOC[C@@H]32)o1
Request: Among A and B , whose measured pEC50 is the smaller figure? Write down the label of the entry you select.
Result: A
